Recorded binding relative to P54AR4-83v2 parent values for a group of binders are listed next.
Biological target: EGFR (form used in the assay not stated) (human, UniProt P00533 25-645, limits assumed)
Assay: ELISA, NEM conjugate, 500 nM

INSERT INTO assay_data (binder, result) VALUES
  ('P54AR4-83v2 V12C, NEM conjugate (designed binder, not shown: small tags and cut ends, N-ethyl maleimide (NEM) on Cys 12) LPAPKNLVVSECTEDSARLSWDDPWAFYESFLIQYQESEKVGEAIVLTVPGSERSYDLTGLKPGTEYTVSIYGVHNVYKDTNMRGLPLSAIFTT', '0.93 ratio'),
  ('P54AR4-83v2 A90C, NEM conjugate (designed binder, not shown: small tags and cut ends, N-ethyl maleimide (NEM) on Cys 90) LPAPKNLVVSEVTEDSARLSWDDPWAFYESFLIQYQESEKVGEAIVLTVPGSERSYDLTGLKPGTEYTVSIYGVHNVYKDTNMRGLPLSCIFTT', '1.01 ratio');

Data request: GET /values?readout=binding relative to P54AR4-83v2 parent&item= P54AR4-83v2 V41C, NEM conjugate (designed binder, not shown: small tags and cut ends, N-ethyl maleimide (NEM) on Cys 41) LPAPKNLVVSEVTEDSARLSWDDPWAFYESFLIQYQESEKCGEAIVLTVPGSERSYDLTGLKPGTEYTVSIYGVHNVYKDTNMRGLPLSAIFTT
Data returned: 0.95 ratio

Data request: Fill blank: measured binding relative to P54AR4-83v2 parent of the binder P54AR4-83v2 P63C, NEM conjugate (designed binder, not shown: small tags and cut ends, N-ethyl maleimide (NEM) on Cys 63) LPAPKNLVVSEVTEDSARLSWDDPWAFYESFLIQYQESEKVGEAIVLTVPGSERSYDLTGLKCGTEYTVSIYGVHNVYKDTNMRGLPLSAIFTT is ____.
Data returned: 0.92 ratio
